System: Staphylococcus aureus
procedure_details: Antibacterial activity against Staphylococcus aureus at 100 ug/ml after 24 hrs by agar well diffusion method
Format: functional
condition_set: read-out: DIZ
Reported zone of inhibition at 100 µg/mL values are given for each entry in this list.
Give the value, in units of mm, as a plain number.

For orientation, consider the following solved cases.
* Cc1ccc(NS(=O)(=O)Cc2nnc(CS(=O)(=O)/C=C/S(=O)(=O)c3ccc(C)cc3)s2)cc1 | 20
* O=S(=O)(Cc1nnc(CS(=O)(=O)c2c[nH]cc2S(=O)(=O)c2ccc(Cl)cc2)o1)Nc1ccc(Cl)cc1 | 20
* Nn1c(CS(=O)(=O)/C=C/S(=O)(=O)c2ccc(Cl)cc2)nnc1CS(=O)(=O)Nc1ccc(Cl)cc1 | 35

Look up zone of inhibition at 100 µg/mL with Staphylococcus aureus for this compound: O=S(=O)(/C=C/S(=O)(=O)c1ccccc1)Cc1nnc(CS(=O)(=O)Nc2ccccc2)s1
21
